Reference for the values: ChEMBL document CHEMBL4673259

# Experimental protocol: Cmax in BALB/c mouse at 10 mg/kg, po measured up to 24 hrs by LC-MS/MS analysis
# Type: ADME, organism-based
# Design: route oral, dose 10 mg/kg, time <=24
# Measurement setup: in vivo
Recorded metric: Cmax (µM)
Answer with a number only, understood to be in µM.

molecule N#Cc1ccc(N2CCN([C@H]3C=C(c4cc5c(N)cc(F)cc5c(=O)[nH]4)CC3)CC2)cc1 , Cmax observed: 19

molecule N#Cc1ccc(N2CCN([C@H]3C=C(c4cc5ncccc5c(=O)[nH]4)CC3)CC2)cc1 , Cmax observed: 31

molecule N#Cc1ccc(N2CCN(CCCc3cc4c(N)cc(F)cc4c(=O)[nH]3)CC2)cc1 , Cmax observed: 1.5

* * *

# Experimental protocol: Protein binding in human plasma
# Type: ADME, cell-free
# Measurement setup: read-out: PPB (converted)
Recorded metric: fraction unbound
The answer should be written as a number, with no unit following it.

compound N#Cc1ccc(N2CCN([C@H]3C=C(c4cc5ncccc5c(=O)[nH]4)CC3)CC2)cc1 , fraction unbound observed: 0.017

* * *

# Tested system: Poly [ADP-ribose] polymerase 1 (Homo sapiens)
# Sequence (P09874 whole entry): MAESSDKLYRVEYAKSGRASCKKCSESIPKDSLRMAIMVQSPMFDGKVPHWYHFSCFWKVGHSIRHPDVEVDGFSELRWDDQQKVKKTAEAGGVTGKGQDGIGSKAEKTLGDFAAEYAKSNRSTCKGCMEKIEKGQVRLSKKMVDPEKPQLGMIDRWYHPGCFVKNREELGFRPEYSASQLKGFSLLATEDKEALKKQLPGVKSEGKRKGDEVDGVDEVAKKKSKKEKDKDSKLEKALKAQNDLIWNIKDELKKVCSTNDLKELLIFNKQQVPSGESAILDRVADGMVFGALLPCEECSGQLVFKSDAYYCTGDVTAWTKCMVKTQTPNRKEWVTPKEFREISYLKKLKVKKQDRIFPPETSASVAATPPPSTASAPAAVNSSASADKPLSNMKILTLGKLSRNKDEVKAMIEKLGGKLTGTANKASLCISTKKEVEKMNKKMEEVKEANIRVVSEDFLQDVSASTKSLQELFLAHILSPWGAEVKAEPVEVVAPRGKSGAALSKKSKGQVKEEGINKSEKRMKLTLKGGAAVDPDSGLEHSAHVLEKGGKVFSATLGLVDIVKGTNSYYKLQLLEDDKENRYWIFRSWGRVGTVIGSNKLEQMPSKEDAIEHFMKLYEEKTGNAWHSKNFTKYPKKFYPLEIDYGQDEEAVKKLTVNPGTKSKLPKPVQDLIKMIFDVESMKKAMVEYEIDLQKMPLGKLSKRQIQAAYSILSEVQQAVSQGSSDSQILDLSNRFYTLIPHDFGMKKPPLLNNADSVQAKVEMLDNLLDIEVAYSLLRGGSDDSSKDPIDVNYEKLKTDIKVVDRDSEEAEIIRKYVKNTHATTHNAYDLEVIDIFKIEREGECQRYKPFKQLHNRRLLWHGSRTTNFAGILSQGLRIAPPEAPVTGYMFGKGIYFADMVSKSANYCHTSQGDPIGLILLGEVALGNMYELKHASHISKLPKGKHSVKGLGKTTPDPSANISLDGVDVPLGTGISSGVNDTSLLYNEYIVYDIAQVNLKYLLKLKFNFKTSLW
# Experimental protocol: Inhibition of PARP1 in human MDA-MB-436 cells assessed as inhibition of PARylation at 10 nM incubated for 1 hr by chemiluminescence assay
# Type: cell-based
inhibition reference

Reported Poly [ADP-ribose] polymerase 1 (Homo sapiens) inhibition for item N#Cc1ccc(N2CCN([C@H]3C=C(c4cc5c(N)cc(F)cc5c(=O)[nH]4)CC3)CC2)c(F)c1 was 89%

Reported Poly [ADP-ribose] polymerase 1 (Homo sapiens) inhibition for item Cn1ncnc1[C@H]1c2n[nH]c(=O)c3cc(F)cc(c23)N[C@@H]1c1ccc(F)cc1 [TALAZOPARIB] was 91%

Reported Poly [ADP-ribose] polymerase 1 (Homo sapiens) inhibition for item NC(=O)c1ccc(N2CCN(CCCc3cc4c(N)cc(F)cc4c(=O)[nH]3)CC2)cc1 was 54%

Reported Poly [ADP-ribose] polymerase 1 (Homo sapiens) inhibition for item N#Cc1ccc(N2CCN([C@H]3C=C(c4cc5ncc(F)cc5c(=O)[nH]4)CC3)CC2)cc1 was 91%

# input for lookup
Reported Poly [ADP-ribose] polymerase 1 (Homo sapiens) inhibition for item N#Cc1ccc(N2CCN([C@H]3C=C(c4cc5ncccc5c(=O)[nH]4)CC3)CC2)cc1 was 82%

* * *

# Experimental protocol: Metabolic stability of the compound in dog plasma measured up to 4 hrs
# Assay type: ADME, cell-free, Canis lupus familiaris
# Measurement setup: read-out: Stabilty
Recorded metric: remaining at 4 h (%)
Answer with a number only, understood to be in %.

molecule N#Cc1ccc(N2CCN([C@H]3C=C(c4cc5ncccc5c(=O)[nH]4)CC3)CC2)cc1 , remaining at 4 h observed: 80

* * *

# Tested system: CYP2C19 (Homo sapiens, UniProt P33261)
# Sequence (P33261 whole entry): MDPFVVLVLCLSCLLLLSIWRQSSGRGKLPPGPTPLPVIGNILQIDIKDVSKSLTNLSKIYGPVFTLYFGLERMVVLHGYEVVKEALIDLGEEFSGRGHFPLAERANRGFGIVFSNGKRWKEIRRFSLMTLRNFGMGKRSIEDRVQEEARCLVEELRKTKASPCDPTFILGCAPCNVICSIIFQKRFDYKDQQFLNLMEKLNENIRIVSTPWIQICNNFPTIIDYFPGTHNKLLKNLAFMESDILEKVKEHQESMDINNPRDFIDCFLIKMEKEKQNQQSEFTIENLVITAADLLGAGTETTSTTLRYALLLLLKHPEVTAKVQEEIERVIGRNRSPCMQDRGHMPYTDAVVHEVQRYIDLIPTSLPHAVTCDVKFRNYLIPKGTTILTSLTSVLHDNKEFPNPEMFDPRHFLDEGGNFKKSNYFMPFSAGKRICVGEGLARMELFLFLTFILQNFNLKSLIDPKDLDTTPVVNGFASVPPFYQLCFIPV
# Experimental protocol: Inhibition of CYP2C19 (unknown origin) at 10 uM relative to control
# Type: ADME
Recorded metric: inhibition at 10 µM

Reported CYP2C19 (Homo sapiens, UniProt P33261) inhibition at 10 µM for item N#Cc1ccc(N2CCN([C@H]3C=C(c4cc5ncccc5c(=O)[nH]4)CC3)CC2)cc1 was ≤ 23%

* * *

# Experimental protocol: Half life in BALB/c mouse at 1 mg/kg, iv measured up to 24 hrs by LC-MS/MS analysis
# Format: ADME, organism-based
# Measurement setup: in vivo
half-life reference
Answer with a number only, understood to be in h.

Worked examples, 2 molecules total:
molecule N#Cc1ccc(N2CCN(CCCc3cc4c(N)cc(F)cc4c(=O)[nH]3)CC2)cc1 , half-life observed: 1.1

molecule N#Cc1ccc(N2CCN([C@H]3C=C(c4cc5ncccc5c(=O)[nH]4)CC3)CC2)cc1 , half-life observed: 5.1

# input for lookup
molecule N#Cc1ccc(N2CCN([C@H]3C=C(c4cc5c(N)cc(F)cc5c(=O)[nH]4)CC3)CC2)cc1 , half-life observed: 2.2
